Data credit: ChEMBL document CHEMBL1201862

Entries and their GI50
- Test system: HCC 2998
- method-description: NCI tumour cell line growth inhibition, 48 h
Active and inactive are the calls of the source. Cut-off read from the data, not from the text of the source: active = GI50 up to about 1.1 µM and inactive = higher.

Here are 3 compounds together with their reported answers.
{"structure-notation": "O=C(Cc1nc(-c2ccccc2)cc(=O)n1-c1ccccc1Cl)c1ccncc1", "GI50": "> 100 µM (inactive)"}
{"structure-notation": "Nc1n[n+](-c2ccccc2)no1", "GI50": "17.4 µM (inactive)"}
{"structure-notation": "COC(=O)c1c(O)ccc(O)c1C(C(C)=O)C(C)=O", "GI50": "> 100 µM (inactive)"}

Turning now to a further compound:
**Query** Provide value of GI50 for this record tested with HCC 2998: "O=C1NC(=S)NC(=O)C1=Cc1ccc[nH]1"
**Result** 11.8 µM (inactive)

* * *

- System: MOLT-4
- method-description: NCI tumour cell line growth inhibition, 48 h
The source made the active and inactive calls. No stated cut-off is given here; in the data, active = GI50 up to about 1.1 µM and inactive = higher. Residues, ends and D or L forms follow the SMILES beside them. *: point of attachment. Boc = CC(C)(C)OC(=O)*
Reported GI50 values for a set of molecules

The following molecules have reported results that may help.
{"molecule": "Cc1nc2ccccc2c(=O)n1-c1n[nH]c2ccccc12", "GI50": "> 100 µM (inactive)"}
{"molecule": "NNC(=O)N/N=C(/CC1(O)C(=O)Nc2ccc(Br)cc21)c1ccccc1 (stereo not given)", "GI50": "16.7 µM (inactive)"}
{"molecule": "Nn1nnc2ccccc21", "GI50": "> 100 µM (inactive)"}

**Query** Request: GI50, test system MOLT-4, entry "NC(=O)c1c(-c2ccccc2)c(-c2ccccc2)cc2c(=O)c3ccccc3[nH]c12"
**Result** 16.4 µM (inactive)

**Query** Moving on to the next molecule: "COC(=O)C1=C(C(=O)OC)SC(=C2SCSC3=C2SC(C(=O)OC)=C(C(=O)OC)C32SC3=C(CCCC3)S2)S1"
**Result** > 100 µM (inactive)

**Query** Further, for O=C(Nc1ccc([N+](=O)[O-])cc1[N+](=O)[O-])C(=O)C(C(=O)c1ccc(Cl)c(Cl)c1)C1OC(=O)c2ccccc21 (stereo not given) ?
**Result** 14.6 µM (inactive)

**Query** Now the same for "CC(C)=CC(=O)CC(=O)C(=O)Nc1ccc(C)c(C)c1"
**Result** > 100 µM (inactive)

**Query** Here is the next molecule: Cc1c(-c2cnccn2)ssc1=S [OLTIPRAZ]
**Result** > 96.4 µM (inactive)

**Query** Try this molecule next: "Cc1noc(/N=C2\C=C(O)C(=O)c3ccccc32)c1C"
**Result** 18.7 µM (inactive)

**Query** Field entry: COC(=O)C(Cc1c[nH]c2ccccc12)NC(=O)C(Cc1c[nH]c2ccccc12)NC(=O)C(Cc1c[nH]c2ccccc12)NC(=O)C(Cc1c[nH]c2ccccc12)NC(=O)OC(C)(C)C (stereo not given) (Boc-WWWW-OMe; configuration not given here)
**Result** 3.85 µM (inactive)

**Query** Request: "O=[N+]([O-])c1ccc(C2=Nn3cnnc3SC2)o1"
**Result** 20 µM (inactive)

* * *

- Test system: SK-MEL-5
- method-description: NCI tumour cell line growth inhibition, 48 h
The source made the active and inactive calls. Cut-off read from the data, not from the text of the source: active = GI50 up to about 1.1 µM and inactive = higher. Square brackets hold non-standard residues; d marks the D form. Peptide text beside a SMILES is read from it.
Entries and their GI50 values follow.

In the examples that follow, each entry is paired with its recorded GI50.
{"molecule": "Nc1cccc(C#Cc2cccc(C#Cc3cccc(N)n3)n2)n1", "GI50": "47.4 µM (inactive)"}
{"molecule": "C=C1C(OC(C)=O)CC(OC(C)=O)C2(C)C(OC(C)=O)C(OC(C)=O)C3=C(C)C(OC(=O)/C=C/c4ccccc4)CC(C(OC(C)=O)C12)C3(C)C (stereo not drawn)", "GI50": "> 100 µM (inactive)"}
{"molecule": "CC(=O)NC1=C(NC(C)(C)C)C(=O)c2ccccc2C1=O", "GI50": "18.2 µM (inactive)"}
{"molecule": "Cn1cnc(N2CCCC2)c(C#N)c1=S", "GI50": "> 100 µM (inactive)"}
{"molecule": "O=C(Nc1cc2c(=O)oc3ccccc3c2oc1=O)c1cccnc1", "GI50": "> 100 µM (inactive)"}
{"molecule": "CSC(=S)N/N=C(\\C)c1cccc(C)n1", "GI50": "0.558 µM (active)"}

Query molecule follows.
**Query** For the molecule N=C(N)NCCC[C@H]1NC(=O)[C@@H](CCC(=O)O)NC(=O)[C@@H](CC(=O)O)NC(=O)[C@@H](CCC(=O)O)NC(=O)[C@H](Cc2c[nH]c3ccccc23)NC1=O (cyclo(W[dE][dD][dE][dR])) , what GI50 is on record?
**Result** > 7.5 µM (inactive)
